Origin of values: patent US20250034136A1

# System: p21 induction in HCT116 cells
# assay-explanation: p21 induction in HCT116 cells
# Type: cell-based
# run-conditions: Homo sapiens, HCT-116, 24 h, HCT116 cells, 24 h compound incubation; read-out: P21_EC50
pEC50: −log10 of the molar value.
Below, each entry is listed with its recorded pEC50.

Consider the following illustrative entries.
# molecule, target-entity, pEC50
data = [
    ("C=C(F)c1cnc2c(n1)c(=O)c(N1CCN(C(=O)c3ncnc(C)c3O)CC1)c(CC)n2CC(=O)Nc1ccc(C(F)(F)F)cc1Cl", "p21 induction in HCT116 cells", "5.70 to 6.30"),
    ("CCc1c(N2CCN(C(=O)c3ncnc(C)c3O)[C@H]3CC[C@@H]32)c(=O)c2nc(N3CCCC3=O)cnc2n1CC(=O)Nc1ccc(C(F)(F)F)cc1Cl", "p21 induction in HCT116 cells", "> 6.30"),
    ("CCc1c(N2CCN(C(=O)c3ncnc(C)c3O)[C@H](C)C2)c(=O)c2nc(N(C)C)cnc2n1CC(=O)Nc1ccc(C(F)(F)F)cc1Cl", "p21 induction in HCT116 cells", "5.70 to 6.30"),
    ("CCc1c(N2CCN(C(=O)c3ncnc(C)c3O)CC2)c(=O)c2nc(-c3cn[nH]c3)cnc2n1CC(=O)Nc1ccc(C(F)(F)F)cc1Cl", "p21 induction in HCT116 cells", "< 5.30"),
    ("CCc1c(N2CCN(C(=O)c3ncnc(C)c3O)[C@H]3CC[C@@H]32)c(=O)c2nc(OC3CC3)cnc2n1CC(=O)Nc1ccc(C(F)(F)F)cc1Cl", "p21 induction in HCT116 cells", "> 6.30"),
]

Next:
Entry CCc1c(N2CCN(C(=O)c3ncnc(C)c3O)[C@@H]3CC[C@H]32)c(=O)c2nc(N(C)C3CC3)cnc2n1CC(=O)Nc1ccc(C(F)(F)F)cc1Cl (single isomer, unassigned) ; assay system p21 induction in HCT116 cells; pEC50 recorded at > 6.30
